Molecular target: Zap1 (UniProt P47043)
Sequence: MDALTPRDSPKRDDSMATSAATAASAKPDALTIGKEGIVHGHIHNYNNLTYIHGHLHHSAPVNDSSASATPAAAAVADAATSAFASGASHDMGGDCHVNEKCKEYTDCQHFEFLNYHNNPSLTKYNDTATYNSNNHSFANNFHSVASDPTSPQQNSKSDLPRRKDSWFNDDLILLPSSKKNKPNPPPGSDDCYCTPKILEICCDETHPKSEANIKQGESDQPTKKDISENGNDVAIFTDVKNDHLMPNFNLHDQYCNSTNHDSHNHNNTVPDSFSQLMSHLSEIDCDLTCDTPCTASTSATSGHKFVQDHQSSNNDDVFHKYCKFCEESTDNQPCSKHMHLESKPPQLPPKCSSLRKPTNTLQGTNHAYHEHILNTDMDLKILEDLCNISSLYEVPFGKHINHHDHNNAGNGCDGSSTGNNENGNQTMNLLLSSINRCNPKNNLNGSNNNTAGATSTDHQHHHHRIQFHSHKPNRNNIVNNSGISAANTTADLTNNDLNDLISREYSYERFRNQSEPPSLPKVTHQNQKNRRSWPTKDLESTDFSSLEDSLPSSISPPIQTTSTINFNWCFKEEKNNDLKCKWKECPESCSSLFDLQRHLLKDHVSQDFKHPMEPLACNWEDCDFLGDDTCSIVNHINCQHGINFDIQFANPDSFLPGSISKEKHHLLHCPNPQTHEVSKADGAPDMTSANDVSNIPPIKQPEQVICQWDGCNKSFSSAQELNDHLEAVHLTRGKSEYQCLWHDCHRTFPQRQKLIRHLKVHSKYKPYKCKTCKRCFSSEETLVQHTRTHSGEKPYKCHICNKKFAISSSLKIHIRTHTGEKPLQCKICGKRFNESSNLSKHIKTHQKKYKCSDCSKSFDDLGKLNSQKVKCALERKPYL
Test: PBM E-score (8-mer binding enrichment) (E-score (-0.5 to 0.5)); higher = stronger / more preferred TF binding
Conditions: protein concentration: 200 nM; construct: GST-full length
Whole data set: some 33,000 sequences, median “E-score (-0.5 to 0.5)” near -0.021, cut for the highest 2% near 0.32. The sample holds the highest values, similar sequences and a random draw of the others, so the mix is not that of the screen.
assay endpoint: PBM E-score
Answer with a bare number; do not write a unit.

| item sequence | result value |
| --- | --- |
| ACCAGGGG | -0.0398 |

Exam item: Please report the measured PBM E-score for GTAGCACA
Marked response: 0.017

Exam item: // Input: GTGACCAA . Output its PBM E-score only.
Marked response: 0.305

Exam item: Give a short answer stating reported PBM E-score for GCCCTCCA .
Marked response: -0.0877

Exam item: Specify measured PBM E-score for CCCCTCCC .
Marked response: 0.0739

Exam item: Respond only with PBM E-score recorded for ATGGCCAT
Marked response: 0.332

Exam item: Give recorded PBM E-score. TGTGAGAA
Marked response: -0.0687

Exam item: Let me know recorded PBM E-score for CGCACAAC , thanks.
Marked response: 0.122

Exam item: State its PBM E-score: ATGGCCAC
Marked response: 0.185

Values from the supplement of paper PMC3334620
